Biological target: TAFIa (Homo sapiens, UniProt Q96IY4)
Construct: purchased Enzyme Research Laboratories
Sequence (Q96IY4 115-423): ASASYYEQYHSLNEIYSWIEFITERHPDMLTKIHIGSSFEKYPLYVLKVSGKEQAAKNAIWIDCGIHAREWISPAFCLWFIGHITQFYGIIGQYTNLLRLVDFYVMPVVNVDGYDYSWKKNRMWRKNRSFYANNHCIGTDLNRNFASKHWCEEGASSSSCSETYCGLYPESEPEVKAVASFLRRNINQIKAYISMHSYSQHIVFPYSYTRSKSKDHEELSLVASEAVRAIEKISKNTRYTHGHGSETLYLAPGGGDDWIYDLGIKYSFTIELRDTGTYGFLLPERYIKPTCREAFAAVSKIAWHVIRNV
Assay: TAFIa inhibition test (Hip-Arg substrate, absorbance at 405 nm)
Assay type: biochemical
Conditions: 40 minutes at room temperature, read-out: IC50 (TAFIa inhibitory activity)
Counter-ions that a name gives are not always drawn.
valueKind: IC50 (nM)
The reply should be a number in nM, with the unit left off.

Worked examples follow.
>>> testresult("NCCCC(Cc1ncn2c1CCc1ncccc1-2)C(=O)O (centres unmarked)")
580
>>> testresult("NCCCC(Cc1ncn2c1COc1ccccc1-2)C(=O)O (centres unmarked)")
1100

// query Recall and state the measured IC50 for Cc1ccc2c(c1)CCc1c(C[C@H](CCCN)C(=O)O)ncn1-2 [Example 29, dihydrochloride] .
// result 25

// query Recall and state the measured IC50 for CC(C)c1ccc2c(c1)CCc1c(C[C@H](CCCN)C(=O)O)ncn1-2 [Example 28, dihydrochloride] .
// result 33

// query Recall and state the measured IC50 for NCCCC(Cc1ncn2c1CNc1ccccc1-2)C(=O)O (centres unmarked) .
// result 630

----------
Target sequence: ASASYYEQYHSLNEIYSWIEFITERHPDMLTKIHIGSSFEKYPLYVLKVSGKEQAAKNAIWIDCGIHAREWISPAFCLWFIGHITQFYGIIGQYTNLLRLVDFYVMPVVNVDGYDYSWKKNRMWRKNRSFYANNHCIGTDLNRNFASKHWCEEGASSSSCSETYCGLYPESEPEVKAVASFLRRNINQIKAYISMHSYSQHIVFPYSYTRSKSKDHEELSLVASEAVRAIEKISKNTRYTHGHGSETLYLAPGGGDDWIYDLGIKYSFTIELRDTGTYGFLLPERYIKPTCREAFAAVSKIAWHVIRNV
pIC50: −log10 of the molar value. Structures can show the parent of a compound that is named as a salt.
Output Y for pIC50 not less than 7; output N otherwise.

Examples with answers:
>>> grouplabel("CCc1cccc2c1CCc1c(CC(CCCN)C(=O)O)ncn1-2 (stereo not shown) [Example 8]")
"N"
>>> grouplabel("Cc1cccc2c1-n1cnc(CC(CCCN)C(=O)O)c1CC2 (stereo not shown) [Example 7, dihydrochloride]")
"N"
>>> grouplabel("CCCc1ccc2c(c1)CCc1c(C[C@H](CCCN)C(=O)O)ncn1-2 [Example 30, dihydrochloride]")
"Y"
>>> grouplabel("NCCC[C@H](Cc1ncn2c1CCc1ccccc1-2)C(=O)O [Example 3]")
"N"

// query Could you tell me if the measured pIC50 of NCCCC(Cc1ncn2c1Cc1ccccc1C2)C(=O)O (stereo not shown) [Example 21] reaches 7 or more?
// result N

// query Could you tell me if the measured pIC50 of NCCC[C@@H](Cc1ncn2c1CCc1cc(CCC3CCCCC3)ccc1-2)C(=O)O [Example 24, dihydrochloride] reaches 7 or more?
// result Y

// query Could you tell me if the measured pIC50 of NCCCC(Cc1ncn2c1CCCc1ccccc1-2)C(=O)O (stereo not shown) [Example 4] reaches 7 or more?
// result N

// query Could you tell me if the measured pIC50 of NCCC[C@@H](Cc1ncn2c1CCc1cc(C3CCCCC3)ccc1-2)C(=O)O [Example 25, dihydrochloride] reaches 7 or more?
// result Y
